# measured.on: WT VCP + Ufd1/Nploc4 (Mus musculus)
# Construct: in the full-length recombinant VCP; His (N); made in house; host or cells: E. coli (VCP: BL21-CodonPlus (DE3)-RIL; UFD1 and NPLOC4: E. coli (DE3), purified by the MD Anderson core)
# Sequence (Q01853 whole entry): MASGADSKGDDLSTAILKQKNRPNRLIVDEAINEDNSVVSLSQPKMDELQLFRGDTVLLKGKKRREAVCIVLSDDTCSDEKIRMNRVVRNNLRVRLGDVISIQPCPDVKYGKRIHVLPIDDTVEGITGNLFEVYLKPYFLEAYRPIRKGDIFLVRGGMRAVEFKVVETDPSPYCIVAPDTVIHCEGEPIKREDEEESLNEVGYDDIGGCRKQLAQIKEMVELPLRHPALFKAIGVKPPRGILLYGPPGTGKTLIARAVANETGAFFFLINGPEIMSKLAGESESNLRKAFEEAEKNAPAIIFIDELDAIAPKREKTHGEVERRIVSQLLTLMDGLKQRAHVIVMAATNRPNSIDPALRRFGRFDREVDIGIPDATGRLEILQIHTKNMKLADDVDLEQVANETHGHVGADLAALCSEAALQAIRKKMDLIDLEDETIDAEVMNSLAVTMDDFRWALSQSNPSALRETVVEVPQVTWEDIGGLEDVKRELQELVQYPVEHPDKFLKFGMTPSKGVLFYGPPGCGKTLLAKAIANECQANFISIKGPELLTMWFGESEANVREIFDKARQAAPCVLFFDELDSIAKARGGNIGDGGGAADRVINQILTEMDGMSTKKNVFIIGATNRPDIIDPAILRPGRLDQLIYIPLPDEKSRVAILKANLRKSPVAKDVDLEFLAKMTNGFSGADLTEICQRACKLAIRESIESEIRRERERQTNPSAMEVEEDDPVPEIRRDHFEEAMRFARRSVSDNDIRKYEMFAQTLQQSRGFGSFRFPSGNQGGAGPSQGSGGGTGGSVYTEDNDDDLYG
# Sequence (Q92890 whole entry partner): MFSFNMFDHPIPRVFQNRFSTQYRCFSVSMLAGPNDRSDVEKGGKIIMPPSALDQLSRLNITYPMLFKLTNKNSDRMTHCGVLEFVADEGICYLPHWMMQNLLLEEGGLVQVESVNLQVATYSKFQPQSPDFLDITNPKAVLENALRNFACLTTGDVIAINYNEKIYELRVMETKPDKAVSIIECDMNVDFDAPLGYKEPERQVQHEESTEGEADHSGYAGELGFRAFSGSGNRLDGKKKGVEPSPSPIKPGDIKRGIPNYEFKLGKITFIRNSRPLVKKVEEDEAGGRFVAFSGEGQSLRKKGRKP
# Sequence (Q8TAT6 whole entry partner): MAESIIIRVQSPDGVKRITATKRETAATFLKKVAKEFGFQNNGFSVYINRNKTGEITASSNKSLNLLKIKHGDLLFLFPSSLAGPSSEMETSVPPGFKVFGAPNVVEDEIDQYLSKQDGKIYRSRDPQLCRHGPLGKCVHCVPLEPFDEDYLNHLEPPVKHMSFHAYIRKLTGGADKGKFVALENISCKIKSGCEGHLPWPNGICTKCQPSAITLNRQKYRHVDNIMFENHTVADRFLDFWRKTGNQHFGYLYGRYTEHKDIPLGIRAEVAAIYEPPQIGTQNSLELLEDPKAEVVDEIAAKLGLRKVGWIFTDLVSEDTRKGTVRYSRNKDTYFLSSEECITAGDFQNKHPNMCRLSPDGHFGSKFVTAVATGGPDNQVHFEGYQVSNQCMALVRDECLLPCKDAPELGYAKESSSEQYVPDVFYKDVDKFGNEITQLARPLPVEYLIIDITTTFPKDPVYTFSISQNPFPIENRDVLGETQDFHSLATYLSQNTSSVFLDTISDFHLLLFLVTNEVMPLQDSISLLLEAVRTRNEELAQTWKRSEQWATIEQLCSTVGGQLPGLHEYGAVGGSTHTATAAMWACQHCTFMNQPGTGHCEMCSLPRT
# test.summary: Kinase-Glo ATPase assay, WT VCP with UFD1/NPLOC4 (UN)
# Type: biochemical
measurement.kind: change in maximum percent activity with UN compared to without UN

{"columns": ["compound.string", "value.observed"],
 "data": [
  ["O=C(CSc1nc2ccccc2c(=O)n1NC(=O)c1ccccc1)c1ccc(Cl)cc1", "significantly decreased"],
  ["COCCNC(=O)NC(=O)COC(=O)c1cc([N+](=O)[O-])ccc1Sc1nc(C)cs1", "significantly decreased"],
  ["O=C(OCCN(C1=NS(=O)(=O)c2ccccc21)c1ccc(Cl)cc1)c1ccco1", "significantly decreased"]
]}
